What IC50 was measured for each of the following?
Target: Aurora-A (Homo sapiens)
Experiment: Flashplate Aurora A enzyme inhibition assay
Assay type: biochemical
Details: Flashplate assay; IC50 range; read-out: Aurora-A inhibition

| compound | IC50 |
| --- | --- |
| COc1ccc(-c2nc3c(N4CCN(Cc5ccc(C(F)(F)F)nc5)CC4)c(Br)cnc3[nH]2)cc1 [Example 124] | < 0.5 µM |
| Brc1cnc2[nH]c(-c3ccc(CN4CCOCC4)cc3)nc2c1N1CCN(Cc2cscn2)CC1 [Example 160] | < 0.5 µM |
| Brc1cnc2[nH]c(-c3ccc(-n4ccnc4)cc3)nc2c1N1CCN(Cc2cccnc2)CC1 [Example 109] | < 0.5 µM |
| COc1ccc(-c2nc3c(N4CCN(Cc5cccnc5)CC4)c(Br)cnc3[nH]2)cn1 [Example 94] | < 0.5 µM |

Provide each entry's IC50 from the list below.
1. CC(C)(C)OC(=O)NCc1nc2c(N3CCN(Cc4cccnc4)CC3)c(Br)cnc2[nH]1 [Example 99]
2. NC(=O)C1CC1c1nc2c(N3CCN(CC(=O)Nc4nccs4)CC3)c(Br)cnc2[nH]1 (centres unmarked) [Example 46]

["2 to 10 µM", "0.5 to 2 µM"]

Provide each entry's IC50 from the list below.
1. Brc1cnc2[nH]c(-c3ccc(OCCN4CCOCC4)cc3)nc2c1N1CCN(Cc2ccncc2)CC1 [Example 82]
2. COc1ccc(-c2nc3c(N4CCN(Cc5ccc(Cl)cc5)CC4)c(Cl)cnc3[nH]2)cc1 [Example 37]

["< 0.5 µM", "< 0.5 µM"]

---

Biological target: Aurora-A (Homo sapiens, UniProt O14965)
Sequence (O14965 whole entry): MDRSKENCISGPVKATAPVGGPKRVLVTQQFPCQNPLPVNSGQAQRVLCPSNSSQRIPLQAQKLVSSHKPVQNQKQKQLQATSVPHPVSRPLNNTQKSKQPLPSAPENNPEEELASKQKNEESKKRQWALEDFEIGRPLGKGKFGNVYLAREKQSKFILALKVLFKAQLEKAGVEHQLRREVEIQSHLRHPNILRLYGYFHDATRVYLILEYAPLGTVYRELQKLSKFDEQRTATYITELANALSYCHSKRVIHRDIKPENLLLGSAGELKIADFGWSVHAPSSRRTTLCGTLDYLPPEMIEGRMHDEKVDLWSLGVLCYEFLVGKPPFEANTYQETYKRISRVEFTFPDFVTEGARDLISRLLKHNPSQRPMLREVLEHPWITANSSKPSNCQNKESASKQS
Assay: Filterplate assay for Aurora-A inhibitors
Format: biochemical
Details: read-out: IC50 against Aurora-A
What pIC50 was measured for each of the following?
One number for each entry, as −log10 of the molar value.

| compound_string | pIC50 |
| --- | --- |
| CN(C)c1ccc(-c2nc3c(N4CCN(CC(=O)Nc5nccs5)CC4)c(Cl)cnc3[nH]2)cc1 | 7.10 |

Recorded pIC50 of "CN(C)c1ccc(-c2nc3c(N4CCN(CC(=O)Nc5nccs5)CC4)c(Br)cnc3[nH]2)cc1" , please.
7.15

---

Molecular target: Aurora-A (Homo sapiens)
Test: Flashplate Aurora A enzyme inhibition assay
Type: biochemical
Settings: Flashplate assay; IC50 range; read-out: Aurora-A inhibition
pIC50: −log10 of the molar value.
readout_label: pIC50

| compound | pIC50 |
| --- | --- |
| Clc1cnc2[nH]c(-c3ccc(CN4CCOCC4)cc3)nc2c1N1CCN(Cc2cccnc2)CC1 [Example 79] | > 6.30 |
| CN(C)c1ccc(-c2nc3c(N4CCN(CC(=O)Nc5cccnc5)CC4)c(Br)cnc3[nH]2)cc1 [Example 21] | > 6.30 |
| CN(C)c1ccc(-c2nc3c(N4CCN(CC(=O)Nc5nccs5)CC4)c(Br)cnc3[nH]2)cc1 [Example 2] | > 6.30 |

Now look at this entry.
Please tell me: pIC50 of Clc1cnc2[nH]c(-c3ccc(CN4CCOCC4)cc3)nc2c1N1CCN(Cc2cscn2)CC1 [Example 177] , system Aurora-A (Homo sapiens)?
> 6.30

---

Molecular target: Aurora-A (Homo sapiens, UniProt O14965)
Test: Flashplate Aurora A enzyme inhibition assay
Assay type: biochemical
Conditions: Flashplate assay; IC50 range; read-out: Aurora-A inhibition
readout_label: IC50

Below: 4 molecules and their reported IC50.
| molecule | IC50 |
| --- | --- |
| CC(C)c1nc(CN2CCN(c3c(Br)cnc4[nH]c(-c5ccc(CN6CCOCC6)cc5)nc34)CC2)cs1 [Example 155] | < 0.5 µM |
| OC1CCN(c2ccc(-c3nc4c(N5CCN(Cc6cccnc6)CC5)c(Br)cnc4[nH]3)cc2)CC1 [Example 114] | < 0.5 µM |
| CC(C)(C)OC(=O)N1CCN(c2ccc(-c3nc4c(N5CCN(Cc6cccnc6)CC5)c(Cl)cnc4[nH]3)cc2)CC1 [Example 136] | 0.5 to 2 µM |
| COc1ccc(-c2nc3c(N4CCN(Cc5cncn5C)CC4)c(Br)cnc3[nH]2)cc1 [Example 165] | < 0.5 µM |

Provide each entry's IC50 from the list below.
1. CN(C)CCOc1ccc(-c2nc3c(N4CCN(CC(=O)Nc5nccs5)CC4)c(Cl)cnc3[nH]2)cc1 [Example 186]
2. O=C(CN1CCN(c2c(Cl)cnc3[nH]c(-c4ccc(N5CCS(=O)(=O)CC5)cc4)nc23)CC1)Nc1nccs1 [Example 187]
3. Clc1cnc2[nH]c(-c3ccc(CN4CCNCC4)cc3)nc2c1N1CCN(Cc2cncnc2)CC1 [Example 141]

< 0.5 µM
< 0.5 µM
< 0.5 µM

---

Target: Aurora-B (Homo sapiens)
Sequence (Q96GD4 whole entry): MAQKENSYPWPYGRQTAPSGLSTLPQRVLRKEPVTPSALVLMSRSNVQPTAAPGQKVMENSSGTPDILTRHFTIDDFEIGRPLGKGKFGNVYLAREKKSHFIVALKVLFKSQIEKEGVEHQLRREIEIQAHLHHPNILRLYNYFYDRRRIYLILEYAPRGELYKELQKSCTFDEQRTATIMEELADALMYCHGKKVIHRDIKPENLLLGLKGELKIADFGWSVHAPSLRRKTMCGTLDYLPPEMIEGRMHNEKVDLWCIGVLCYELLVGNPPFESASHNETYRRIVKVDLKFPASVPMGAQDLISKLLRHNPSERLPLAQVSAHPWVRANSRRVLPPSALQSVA
Assay: Filterplate assay for Aurora-B inhibitors
Type: biochemical
Details: read-out: IC50 range in respect of Aurora-B
Description: […]
What IC50 was measured for each of the following?

Below: 5 molecules and their reported IC50.
| compound_string | IC50 |
| --- | --- |
| Brc1cnc2[nH]c(-c3ccc(CN4CCOCC4)cc3)nc2c1N1CCN(Cc2cccnc2)CC1 | 0.5 to 2 µM |
| Cc1cc(CN2CCN(c3c(Br)cnc4[nH]c(-c5ccc(CN6CCOCC6)cc5)nc34)CC2)no1 | < 0.5 µM |
| Brc1cnc2[nH]c(-c3ccc(CN4CCOCC4)cc3)nc2c1N1CCN(Cc2cncnc2)CC1 | < 0.5 µM |
| Cc1cc(CN2CCN(c3c(Br)cnc4[nH]c(-c5ccc(Cn6cccn6)cc5)nc34)CC2)no1 | < 0.5 µM |
| Cc1nc(CN2CCN(c3c(Br)cnc4[nH]c(-c5ccc(Cn6cccn6)cc5)nc34)CC2)cs1 | 0.5 to 2 µM |

Recorded IC50 of "Brc1cnc2[nH]c(-c3ccc(CN4CCNCC4)cc3)nc2c1N1CCN(Cc2cccnc2)CC1" , please.
0.5 to 2 µM
